- Tested on: EKVX NSCLC
- assay-explanation: NCI-60 one-dose screen, 48 h (100 = growth as untreated, 0 = no growth, -100 = all killed)
- assay-conditions: 10 µM
The panel holds about 83,000 compounds, 20% with a hit somewhere; the sample as a whole holds those more often.
measured-property: growth (%)
Give bare numbers, in %.

>>> reading("O=C(CCCSc1nc(-c2ccc(Cl)cc2)cc(-c2ccc(Cl)cc2)n1)NO")
-19.7

Look at each molecule and report its growth.
1. COc1ccc(-c2cc(-c3ccccc3)nc(SCCCCCCC(=O)NO)n2)cc1
2. CN(C)CCN(Cc1ccccc1)c1ccc2ccccc2n1
3. Cc1nc2n(c(=O)c1CCN1CCC(c3noc4cc(F)ccc34)CC1)CCC[C@@H]2O
4. CC(=O)OC1CC2C(C)(C)CCC[C@]2(C)C2=C1C(O)=C(C(C)C)C(=O)C2=O (stereo partly specified)
5. CC(=O)C1CCC2C3CC=C4CC(SC(=N)N)CCC4(C)C3CCC12C (stereo unspecified)
6. O=C(Nc1cc(Cl)cc2c1-c1ccc(Cl)cc1C2O)C(Cl)Cl (stereo unspecified)
7. O=C(Nc1ccc(NS(=O)(=O)c2ccc(F)cc2)cc1)C12CC3CC(CC(C3)C1)C2
8. CCC(C)[C@H](NC(C)=O)C(=O)N[C@@H](CCCNC(=N)N)C(=O)N[C@@H](CCCCN)C(=O)N[C@@H](CC1CCC(O)CC1)C(=O)NC(C(=O)N[C@@H](CCSC)C(=O)N[C@@H](CCCNC(=N)N)C(=O)N[C@@]1(C)CCC/C=C\CCC[C@@](C)(C(=O)NC(C(=O)N[C@@H](CCC(=O)O)C(=O)N[C@@H](CC(C)C)C(=O)N[C@H](C(=O)N[C@@H](CCC(=O)O)C(N)=O)C(C)C)[C@@H](C)O)NC(=O)[C@H](CCC(N)=O)NC(=O)[C@H](CC(C)C)NC(=O)[C@H](CC(C)C)NC1=O)[C@@H](C)O (stereo partly specified)

74.2
109
92.8
-15.7
55.2
69
74.4
99.5

Look at each molecule and report its growth.
1. COc1ccccc1N1CCCSC1=Nc1ccccc1
2. CCCCN1C(=O)CC(SC2CC(=O)N(CCCC)C2=O)C1=O (stereo unspecified)
3. COc1ccc(/C(C#N)=C/c2ccccc2OC)cc1

1. 110
2. 98.5
3. 64.6

====

- System: UACC-257 melanoma
- assay-explanation: NCI-60 one-dose screen, 48 h (100 = growth as untreated, 0 = no growth, -100 = all killed)
- assay-conditions: 10 µM
This is part of a sample that, as a whole, favours compounds with a hit. Of some 83,000 tested, about 20% had one in any assay.
measured-property: growth (%)
Numbers only, in %.

The cases that follow already have their growth on record.
>>> reading("CC1/C=C/C=C/C=C/C=C/C=C/C=C/C=C/C(O[C@@H]2O[C@H](C)[C@H](O)[C@@H](O)[C@@H]2N)CC(O)C(C(=O)O)C(O)CC(=O)CC(O)CC(O)CC(O)CC(=O)CCCC(=O)CC(=O)OC1C(C)CC(C)C(O)CC(=O)c1ccc(N)cc1 (stereo not given in full)")
-99.7
>>> reading("COc1ccc(-c2nn(-c3cccc(Cl)c3)cc2-c2c(C#N)c(=O)n3[nH]c(-c4ccc(C)cc4)nc3c2C#N)cc1")
96.9
>>> reading("CCCCC1(O)CCCCC1")
102
>>> reading("COc1cc(-c2nc3ccccc3o2)cc(CN2CCCCC2)c1O")
75.2
>>> reading("CCc1ccc(-c2ccc(-n3nc(C)c4c(N)nc(Cc5ccccc5)nc43)cc2)cc1")
71.9

Look at each molecule and report its growth.
1. O=[N+]([O-])c1cccc(/C=N/NC(=S)NC23CC4CC(CC(C4)C2)C3)c1
2. CCOc1ccccc1/C=N/N1CCCCCC1
3. O=C(CCCCC(=O)Oc1c(Cl)cc(Cl)cc1[N+](=O)[O-])Oc1c(Cl)cc(Cl)cc1[N+](=O)[O-]
4. O=C1c2ccccc2C(=O)N1CCCCNc1ccccc1
5. CCOC(=O)C(C)(c1ccccc1)c1ccccc1
6. CC(C)(C)OC(=O)N1CCc2c(sc3ncnc(N/N=C/c4ccc(Br)cc4)c23)C1

1. 76.4
2. 115
3. 99.5
4. 106
5. 93.5
6. 73.4

Look at each molecule and report its growth.
1. CC(C)(C)OC(=O)CN1CCc2c(sc3ncnc(N/N=C/c4ccccc4Br)c23)C1
2. CC(CN(C)C)Oc1ccccc1NC1=C(Cl)C(=O)C(Nc2ccccc2OC(C)CN(C)C)=C(Cl)C1=O (stereo not given)
3. CCOC(=O)c1cc(C(=O)c2ccc(OC)c(OC)c2)n2ccncc12
4. COc1ccc2c(c1)CC=C1[C@@H]2CC[C@]2(C)C(=O)/C(=N/O)C[C@@H]12
5. IC(I)I
6. O=C(O)c1cn(C2CC2)c2cc(N3CCN(C(=O)c4cc(-c5ccc(Cl)cc5)nc5ccccc45)CC3)c(F)cc2c1=O
7. Cc1cc(Br)nnc1Br
8. OC[C@H]1OC([S-])[C@H](O)[C@@H](O)[C@@H]1O.[Au+] (stereo not given in full)

1: 92.7; 2: -91.8; 3: 102; 4: 118; 5: 109; 6: 107; 7: 133; 8: 90

====

- Test system: HT29 colon
- assay-explanation: NCI-60 one-dose screen, 48 h (100 = growth as untreated, 0 = no growth, -100 = all killed)
- assay-conditions: 10 µM
About 83,000 compounds went through this panel and 20% of them were active in at least one assay; those are over-represented in the sample as a whole.
Label 0.0 if growth falls below 70%; label 1.0 in every other case.

>>> category("COc1cc(NC(=O)Nc2cnc(Nc3ccc(N4CCOCC4)cc3)nc2Oc2cccc(OC)c2)cc(OC)c1")
0.0

growth >= 70% for Cc1c(Cl)cccc1NC(=O)CN1CCOCC1 ? 1.0

Consider next the compound COc1cc(-c2nn(-c3cccc(NC(=O)NCCNS(=O)(=O)c4ccc(Cl)cc4)c3)cc2-c2ccncc2)ccc1Cl in the same way. 0.0

Consider next the compound COc1cc(/C=C2\CCCC3=C2N=C2SC(C)=CN2C3c2cc(OC)c(OC)c(OC)c2)cc(OC)c1OC (stereo not given) in the same way. 0.0

Consider next the compound COc1cc(-c2nn(-c3cccc(NC(=O)CCN4CCN(c5ccccc5)CC4)c3)cc2-c2ccncc2)ccc1Cl in the same way. 0.0

Consider next the compound CC[C@@H](C(=O)[C@H](C)[C@H](O)[C@@H](C)[C@H]1O[C@H]([C@@H](CC)C(=O)N(CC)CC)CC[C@H]1C)C1O[C@]2(C=C[C@@H](O)[C@]3(CC[C@@](C)([C@H]4CC[C@](O)(CC)[C@H](C)O4)O3)O2)[C@H](C)C[C@@H]1C (stereo not given in full) in the same way. 0.0

Consider next the compound O=c1oc2c(cc1-c1ccc(F)cc1)C(O)Oc1ccccc1-2 (stereo not given) in the same way. 0.0

Consider next the compound CC(C)[N+]1(C)C2CC[C@@H]1CC(OC(=O)C(CO)c1ccccc1)C2 (stereo not given in full) in the same way. 1.0

Consider next the compound CNS(=O)(=O)Oc1ccc(-c2sc3cc(OS(=O)(=O)NC)ccc3c2C(=O)c2ccc(OCCN3CCCCC3)cc2)cc1 in the same way. 0.0

Consider next the compound CCn1c2ccc(O)cc2c2c(C)c3c[n+](C)ccc3c(C)c21 in the same way. 0.0

Consider next the compound COc1ccc(-c2nn(-c3cccc(Cl)c3)cc2/C=C2\NC(=S)N(c3ccc(Cl)cc3)C2=O)cc1 in the same way. 0.0

Consider next the compound C[C@]12CC[C@@H]3c4ccc(OS(=O)(=O)O)cc4CC[C@H]3[C@@H]1CC[C@@H]2NS(=O)(=O)c1ccc(-c2ccccc2)cc1 in the same way. 0.0

Consider next the compound CCOC(=O)C1C(C(=O)OCC)C2C(=O)C3C(C(=O)OCC)C(C(=O)OCC)C3C(=O)C12 (stereo not given) in the same way. 1.0

Consider next the compound COc1cc(C(=O)n2nc(-c3cc(OC)c(OC)c(OC)c3)nc2N)cc(OC)c1OC in the same way. 1.0

Consider next the compound CC(=O)Nc1ccc(S(=O)(=O)N/N=C(\C)c2ccc(C)cc2C)cc1 in the same way. 1.0

Consider next the compound CN(C)CCCOc1cccc(NC2=C(Cl)C(=O)C(Nc3cccc(OCCCN(C)C)c3)=C(Cl)C2=O)c1 in the same way. 0.0

Consider next the compound Cc1c2cnccc2c(C)c2c1c1cc(O)ccc1n2C(C)C in the same way. 0.0

Consider next the compound Cc1ccc(C(=O)C2C(=O)C3CCC2C3)cc1 (stereo not given) in the same way. 1.0

====

For each entry below, report its growth value.
- System: MALME-3M melanoma
- assay-explanation: NCI-60 one-dose screen, 48 h (100 = growth as untreated, 0 = no growth, -100 = all killed)
- assay-conditions: 10 µM
This is part of a sample that, as a whole, favours compounds with a hit. Of some 83,000 tested, about 20% had one in any assay.
Give bare numbers, in %.

The cases that follow already have their growth on record.
>>> reading("CC(=O)N[C@H](C(=O)N[C@@H](CCCNC(=N)N)C(=O)N[C@@H](CCCCN)C(=O)N[C@@H](CCCNC(=N)N)C(=O)N[C@]1(C)CCCCCC/C=C\\CCC[C@@](C)(C(=O)N[C@@H](CCCNC(=N)N)C(=O)N[C@@H](CCC(=O)O)C(=O)N[C@@H](CC(C)C)C(=O)N[C@H](C(=O)N[C@@H](CCC(=O)O)C(N)=O)C(C)C)NC(=O)[C@H](CCC(N)=O)NC(=O)[C@H](CC(C)C)NC(=O)[C@H](CC(C)C)NC(=O)[C@H](CCCNC(=N)N)NC(=O)[C@H](CCCNC(=N)N)NC(=O)[C@H](CC(C)C)NC1=O)C(C)C")
-28.7
>>> reading("COc1ccc2c(c1)OC(N)=C(C#N)C2c1cc(OC)c(OC)c(OC)c1 (stereo not given)")
26.9
>>> reading("c1cncc(-c2csc(-c3c[nH]c4ccccc34)n2)c1")
78.8
>>> reading("CCN(CC)CCCC(Nc1c2ccc(Cl)cc2nc2ccc(OC)cc12)c1ccc(F)cc1 (stereo not given)")
-75.4

Now look at this entry.
What measured growth is associated with NC1=NC(c2ccccc2)C2=C(N1)/C(=C/c1ccccc1)CCC2 (stereo not given) on MALME-3M melanoma? 103
